Collected OD450 values appear next to each entry.
# TARGET: T1, human MSLN-R1-his protein (human, UniProt Q13421 296-390)
# T1 construct: also called human MSLN-R1 protein; hMSLN-R1-his; not shown: His tag
# T1 sequence (Q13421 other isoform, or with tags, fused parts or gaps): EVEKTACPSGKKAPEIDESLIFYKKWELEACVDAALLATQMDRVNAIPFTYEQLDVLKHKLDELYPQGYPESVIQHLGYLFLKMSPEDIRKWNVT
# ASSAY_PROTOCOL: ELISA, coated antigen; no antibody (blank, column 'none')
Please give a number only; it is taken to be in OD450.

[
  {
    "BINDER": "S009-F6-76.1 (antibody, human IgG1, kappa, V domains shown, Human-murine chimeric antibody, human IgG1/kappa constant regions) VH: QVQLQQSGPELVKPGASVKISCKASGYTFTDYYINWVKQRPGQGLEWIGWIFPGRGSTFYYEKFKGKATLTVDKSSSTAYMLLSSLTSEDSAVYFCARRGDSAGYEDLDYWGQGTSVTVSS VL: NIVMTQSPKFMSMSVGERVTLSCKASENVVTYVSWYQQKPKQSPKLLIYGASKRYTGVPDRFTGSGSATDFTLTISSVQAEDLGDYHCGQSYSYPYTFGGGTKLEIKR",
    "UNIT_STRING": "OD450",
    "ASSAY_VALUE": 0.04
  },
  {
    "BINDER": "S009-F4-94.15 (antibody, human IgG1, kappa, V domains shown, Human-murine chimeric antibody, human IgG1/kappa constant regions) VH: QVQLHQPGAELVRPGSSVKLSCKASGYTFTSYWVHWVQQRPRQGLEWIGNIDPSDSEIHYNQKFKDKATLTVDKSSSTAYIHLSRLTSEDSAIYYCVRGGVPWFAYWGQGTLVTVSA VL: QIVLTQSPAIMSASPGEKVTLTCSASSSVSSTYLYWFQQKPGSSPKVWIYSTSNLASGVPARFSGSGSGTSYSLTISSMEAEDAASYFCHQWISYPYTFGGGTKLEIKR",
    "UNIT_STRING": "OD450",
    "ASSAY_VALUE": 0.07
  },
  {
    "BINDER": "S009-F5-9.16 (antibody, human IgG1, kappa, V domains shown, Human-murine chimeric antibody, human IgG1/kappa constant regions) VH: EVQLRQSGPVLVKPGASVKMSCKASGYTFTDYFMNWVKPSHGKSLEWIGVINPSNGVINYNQRFKGKATLTVDKSSSTAYMELNSLTSEDSAVYYCARSYDFAWFAYWGQGTLVTVSA VL: DVLMTQTPLSLPVSLGDQASISCRSSQNIVHSNGNTYLEWYLQKPGQSPKLLIYTVSNRFSGVPDRFSGSGSGTDFTLKISRVEAEDLGVYYCFQGSHVPYTFGGGTKLEIKR",
    "UNIT_STRING": "OD450",
    "ASSAY_VALUE": 0.04
  }
]

// switching to the query binder
Summary for this binder, S009-F4-127.10 (antibody, human IgG1, kappa, V domains shown, Human-murine chimeric antibody, human IgG1/kappa constant regions) VH: EVQLQQSGPVLVKPGASVKMSCKASGYTFTDYYMNWVKQSHGKSPEWIGVINPYNDVISYNQKFKGKATLTVDKSSSTAYMELNSLTSEDSAVYYCANYGSSYYAMDYWGQGTSVTVSS VL: DVVMTQTPLSLSVSLGDQASISCRSSQSLVHSNGNTYLQWSLQKPGQSPNLLIYKVSNRFSGVPDRFSGSGSGTDFTLKISRVEAEDLGVYFCSQTTHVPFTFGGGTKLEIRR : OD450 is 0.06

Just for reference, patent US20250250357A1 is where these values come from.
